Each recorded value in this set is attributed to ChEMBL document CHEMBL4190332.

test: Half life in mouse plasma; assay type: ADME, cell-free
Please provide measured half-life for the entries that follow.
Hi! Could you send only the number? It should be in min, unit omitted.

Qu. Which value of half-life has been reported for CC(=O)N1c2ccc(-c3ccc(C(=O)N4CCNCC4)cc3)cc2N(C(=O)C2CC2)C[C@@H]1C in the records?
Ans. 3

Qu. Which value of half-life has been reported for CC(=O)N1c2ccc(-c3ccc(S(C)(=O)=O)cc3)cc2N(C(=O)OC(C)C)C[C@@H]1C in the records?
Ans. 6

Qu. Which value of half-life has been reported for CCC(=O)N1c2ccc(-c3ccc(S(C)(=O)=O)cc3)cc2N(C(=O)c2ccco2)C[C@@H]1C in the records?
Ans. 18

Qu. Which value of half-life has been reported for COC(=O)N1c2ccc(-c3ccc(S(C)(=O)=O)cc3)cc2N(C(=O)c2ccco2)C[C@@H]1C in the records?
Ans. 22

* * *

experiment: Stability in mouse liver microsomes assessed as parent compound remaining after 30 mins; assay type: ADME, microsome; conditions: read-out: Stability
Readout type: remaining at 0.5 h (%)
Hi! Could you send only the number? It should be in %, unit omitted.

Qu. Which value of remaining at 0.5 h has been reported for C[C@H]1CN(C(=O)c2ccco2)c2cc(-c3ccc(S(C)(=O)=O)cc3)ccc2N1C(=O)C1CC1 in the records?
Ans. 19

Qu. Which value of remaining at 0.5 h has been reported for CCC(=O)N1c2ccc(-c3ccc(S(C)(=O)=O)cc3)cc2N(C(=O)c2ccco2)C[C@@H]1C in the records?
Ans. 11

Qu. Which value of remaining at 0.5 h has been reported for CC(=O)N1c2ccc(-c3ccc(C(=O)N4CCNCC4)cc3)cc2N(C(=O)C2CC2)C[C@@H]1C in the records?
Ans. 100

Qu. Which value of remaining at 0.5 h has been reported for CC(=O)N1c2ccc(-c3ccc(N4CCS(=O)(=O)CC4)cc3)cc2N(C(=O)C2CC2)C[C@@H]1C in the records?
Ans. 95

Qu. Which value of remaining at 0.5 h has been reported for CC(=O)N1c2ccc(-c3cnn(C(C)C)c3)cc2N(C(=O)C2CC2)C[C@@H]1C in the records?
Ans. 24

Qu. Which value of remaining at 0.5 h has been reported for CC(=O)N1c2ccc(-c3ccc(S(C)(=O)=O)cc3)cc2N(C(=O)C2CC2)C[C@@H]1C in the records?
Ans. 100

Qu. Which value of remaining at 0.5 h has been reported for CC(=O)N1c2ccc(-c3cnn(C4COC4)c3)cc2N(C(=O)C2CC2)C[C@@H]1C in the records?
Ans. 100

Qu. Which value of remaining at 0.5 h has been reported for CC(=O)N1c2ccc(-c3cnn(C4CNC4)c3)cc2N(C(=O)C2CC2)C[C@@H]1C in the records?
Ans. 100

Qu. Which value of remaining at 0.5 h has been reported for COC(=O)N1c2ccc(-c3ccc(S(C)(=O)=O)cc3)cc2N(C(=O)c2ccco2)C[C@@H]1C in the records?
Ans. 14

Qu. Which value of remaining at 0.5 h has been reported for CC(=O)N1c2ccc(-c3ccc(S(C)(=O)=O)cc3)cc2N(C(=O)OC(C)C)C[C@@H]1C in the records?
Ans. 99

* * *

biological target: Bromodomain-containing protein 4 (Homo sapiens, UniProt O60885); assay: Inhibition of BRD4 in human MV411 cells assessed as reduction in MYC mRNA expression; format: cell-based
Readout type: IC50 (nM)
Hi! Could you send only the number? It should be in nM, unit omitted.

Qu. Which value of IC50 has been reported for CC(=O)N1c2ccc(-c3ccc(N4CCS(=O)(=O)CC4)cc3)cc2N(C(=O)C2CC2)C[C@@H]1C in the records?
Ans. 460
